system: XF 498 CNS; test: NCI tumour cell line growth inhibition, 48 h
For each of the molecules below, state its TGI.

{"columns": ["molecule", "TGI"],
 "data": [
  ["N=S(=O)(c1ccccc1)c1ccccc1[N+](=O)[O-] (stereo not given)", "> 100 µM"],
  ["O=C1O[C@H](C(Cl)(Cl)Cl)N2CCCC12 (stereo not given in full)", "> 100 µM"],
  ["CC(C)COC(=O)N1N=NC2C3OC(CC3=O)C21 (stereo not given)", "> 100 µM"],
  ["COc1ccc(S(=O)(=O)N/N=C/CN2C(=O)c3ccccc3C2=O)cc1OC", "> 100 µM"]
]}

Now examine the next entry.
The recorded TGI for entry CCNC(=O)/C=C/CCC#Cc1ccc(-c2ccc(-c3cccs3)s2)s1 equals 7.19 µM

* * *

For each of the molecules below, state its TGI.
tested on: MDA-MB-435; assay: NCI tumour cell line growth inhibition, 48 h

{"columns": ["molecule", "TGI"],
 "data": [
  ["NS(=O)(=O)c1ccc(Nc2c3ccccc3nc3c(C(=O)NCCCN(CCO)CCO)cccc23)cc1", "37.2 µM"]
]}

Please give TGI for each item listed below.
1. NC(c1ccccc1)(C(F)(F)F)P1(=O)OC(=O)c2ccccc2O1 (centres undefined)
2. C[C@H](CC[C@@H](O)C(C)(C)O)[C@H]1CC[C@@]2(C)[C@@H]3CC=C4[C@@H](CC[C@H](O)C4(C)C)[C@]3(C)C(=O)C[C@]12C
3. O=C1CCC2(CC1CCSc1ccccc1)OCCO2 (centres undefined)

Response:
> 100 µM
> 50 µM
> 100 µM

* * *

test system: NCI/ADR-RES ovarian; assay: NCI tumour cell line growth inhibition, 48 h
For each of the molecules below, state its TGI.
Numbers only, in µM.

{"columns": ["molecule", "assay target", "TGI [µM]"],
 "data": [
  ["Cn1c(-c2ccc[se]2)ccc1-c1ccc(CO)[se]1", "NCI/ADR-RES ovarian", 52.2]
]}

Please give TGI for each item listed below.
1. C=CC(C)(C)N[C@@H](C(=O)N1CCC[C@H]1c1nc(-c2nc(C(=O)OCC=C(C)C)c(C)o2)c(C)o1)C(C)C
2. O=CN1N=C(c2ccc(Nc3ccnc4cc(Cl)ccc34)cc2)CC1c1ccccc1 (stereo not given)
3. Cc1[nH]c(C(=O)Nc2ccc(C(=O)N3CCNCC3)cc2OC(C)C)c(Cl)c1Cl
4. CCCCCCOc1ccc(/C=N/NC(N)=S)cc1

Response:
1. 59
2. 59.8
3. 5.58
4. 18.3

* * *

For each of the compounds below, state its GI50.
tested on: UACC-62 melanoma; test: NCI tumour cell line growth inhibition, 48 h

Example results:
{"columns": ["compound", "GI50"],
 "data": [
  ["COC(=O)Nc1nc2ccc(Oc3ccc(NC(=O)Nc4cccc(Br)c4)cc3)cc2[nH]1", "0.906 µM"],
  ["CN(C)/C=C/c1nnnn1-c1ccc(Cl)cc1", "8.22 µM"],
  ["O=C(Cn1c(=O)c(-c2ccccc2)nc2ccccc21)c1cccnc1", "> 100 µM"],
  ["O=S1(=O)N(Cc2ccccc2)[C@@H](Cc2ccccc2)C2O[C@H]2[C@H](Cc2ccccc2)N1Cc1ccccc1 (stereo not given in full)", "6.75 µM"]
]}

Now examine the next entry.
The recorded GI50 for entry CCc1ccc(-c2ccc(=O)n(-c3ccc(S(N)(=O)=O)cc3)n2)cc1 equals 0.84 µM
